Target: GABAa receptor
Assay: GABAa receptor binding assay (displacement of 3H-RO15-1788 [3H-Flumazenil], rat cortical tissue)
Settings: Table 3, 0.5 nM 3H-RO15-1788, 30 min at 4° C., nonspecific binding with diazepam
Procedure: The pharmaceutical utility of compounds of this invention are indicated by the following assay for GABAa receptor binding activity. Assays are carried out as described in Thomas and Tallman (J. Bio. Chem. 156: 9838-9842 J. Neurosci. 3: 433-440, 1983). Rat cortical tissue is dissected and homogenized in 25 volumes (w/v) of 0.05M Tris HCl buffer (pH 7.4 at 4° C.). The tissue homogenate is centrifuged in the cold (4°) at 20,000×g for 20'. […]
pKi: −log10 of the molar value.
TEST_READOUT: pKi

{"CHEMICAL_STRING": "CC1(C)CCc2[nH]cc(C(=O)Nc3ccc(O)cc3)c2C1=O", "STUDY_TARGET": "GABAa receptor", "QUANTITATIVE_READOUT": 8.70}
{"CHEMICAL_STRING": "O=C(Nc1ccccc1)c1c[nH]c2c1C(=O)CCC2", "STUDY_TARGET": "GABAa receptor", "QUANTITATIVE_READOUT": 8.70}
{"CHEMICAL_STRING": "COc1ccc(NC(=O)c2c[nH]c3c2C(=O)C(C)(C)CC3)c(F)c1", "STUDY_TARGET": "GABAa receptor", "QUANTITATIVE_READOUT": 8.00}
{"CHEMICAL_STRING": "CCOc1ccc(NC(=O)c2c[nH]c3c2C(=O)CCCC3)c(F)c1", "STUDY_TARGET": "GABAa receptor", "QUANTITATIVE_READOUT": 7.43}
{"CHEMICAL_STRING": "COc1cccc(NC(=O)c2c[nH]c3c2C(=O)CCCC3)c1", "STUDY_TARGET": "GABAa receptor", "QUANTITATIVE_READOUT": 7.54}
{"CHEMICAL_STRING": "CC1(C)CCc2[nH]cc(C(=O)Nc3ccccc3F)c2C1=O", "STUDY_TARGET": "GABAa receptor", "QUANTITATIVE_READOUT": 7.85}
{"CHEMICAL_STRING": "Cc1ccc(NC(=O)c2c[nH]c3c2C(=O)CCC3)c(F)c1", "STUDY_TARGET": "GABAa receptor", "QUANTITATIVE_READOUT": 7.59}
{"CHEMICAL_STRING": "O=C(Nc1ccccc1F)c1c[nH]c2c1C(=O)CCC2", "STUDY_TARGET": "GABAa receptor", "QUANTITATIVE_READOUT": 8.52}
{"CHEMICAL_STRING": "O=C(Nc1ccccc1O)c1c[nH]c2c1C(=O)CCC2", "STUDY_TARGET": "GABAa receptor", "QUANTITATIVE_READOUT": 9.10}
{"CHEMICAL_STRING": "O=C(Nc1ccccc1F)c1c[nH]c2c1C(=O)CCCC2", "STUDY_TARGET": "GABAa receptor", "QUANTITATIVE_READOUT": 8.22}
{"CHEMICAL_STRING": "CC1(C)CCc2[nH]cc(C(=O)Nc3ccccc3)c2C1=O", "STUDY_TARGET": "GABAa receptor", "QUANTITATIVE_READOUT": 7.51}
{"CHEMICAL_STRING": "CNc1ccc(NC(=O)c2c[nH]c3c2C(=O)CCC3)cc1", "STUDY_TARGET": "GABAa receptor", "QUANTITATIVE_READOUT": 7.74}
{"CHEMICAL_STRING": "CC(C)Oc1ccc(NC(=O)c2c[nH]c3c2C(=O)CCC3)cc1", "STUDY_TARGET": "GABAa receptor", "QUANTITATIVE_READOUT": 7.28}
{"CHEMICAL_STRING": "COc1ccc(NC(=O)c2c[nH]c3c2C(=O)CCC3)cc1F", "STUDY_TARGET": "GABAa receptor", "QUANTITATIVE_READOUT": 8.52}

---

target: GABAa receptor; assay: GABAa receptor binding assay (displacement of 3H-RO15-1788 [3H-Flumazenil], rat cortical tissue); settings: Table 2, 0.5 nM 3H-RO15-1788, 30 min at 4° C., nonspecific binding with diazepam
pKi: −log10 of the molar value.
pKi values by entry
TEST_READOUT: pKi

{"COMPOUND": "COc1ccc(NC(=O)c2c[nH]c3cccc(OCc4ccccc4)c23)c(F)c1 [Compound 14]", "QUANTITATIVE_READOUT": 6.88}
{"COMPOUND": "COc1ccc(NC(=O)c2c[nH]c3c2C(=O)CCC3)c(F)c1 [Compound 6]", "QUANTITATIVE_READOUT": 9.00}
{"COMPOUND": "COc1ccc(NC(=O)c2c[nH]c3cccc(OC)c23)cc1 [Compound 8]", "QUANTITATIVE_READOUT": 7.60}
{"COMPOUND": "CC(=O)Nc1ccc(NC(=O)c2c[nH]c3c2C(=O)CCC3)cc1 [Compound 12]", "QUANTITATIVE_READOUT": 7.55}
{"COMPOUND": "COc1ccc(NC(=O)c2c[nH]c3cccc(O)c23)c(F)c1 [Compound 2]", "QUANTITATIVE_READOUT": 6.37}
{"COMPOUND": "COc1ccc(NC(=O)c2c[nH]c3c2C(=O)CCC3)cc1 [Compound 1]", "QUANTITATIVE_READOUT": 8.40}

Data origin, for the record: patent US5750702A
